I'd be grateful if you could share measured GI50 for these entries.
- Tested on: NCI/ADR-RES
- protocol.description: NCI tumour cell line growth inhibition, 48 h
Active and inactive are the calls of the source. Cut-off read from the data, not from the text of the source: active = GI50 up to about 1.1 µM and inactive = higher.

Reported GI50, compound Cc1cc(NCC2CC/C(=C\C=C\c3ccccc3)C2=O)no1 (stereo not given) : ____
40.5 µM (inactive)

Can you share its GI50? I mean this compound: CC(C)(C)OC(=O)N(O)CCCn1cnc2c(N)ncnc21
> 100 µM (inactive)

Quick one: GI50 for C#C[C@]1(O)CC[C@H]2[C@@H]3CCC4=C/C(=N/CCOC(=O)c5cccc6c(=O)c7ccccc7[nH]c56)CC[C@@H]4[C@H]3CC[C@@]21C ?
40.9 µM (inactive)

I have this compound here, NCCCN(CCCCN(CCCN)CCCc1ccccc1)CCCc1ccccc1 , and I need its recorded GI50.
20.1 µM (inactive)

Look at this compound and give its reported GI50. CC1CC[C@@]2(OC1)OC1C[C@H]3[C@@H]4C/C(=N\N(C)C)[C@@]5(O)CC(O)CC[C@]5(C)[C@H]4CC[C@]3(C)C1[C@@H]2C (stereo not given in full)
49.4 µM (inactive)

Look up GI50 for this compound: CCOc1ccc(-n2nnc3c(N)nc(N)nc32)cc1
> 100 µM (inactive)

Sample COC(=O)C1C(O)C(C)C(O)C(C)C=C(C)C2=C3C(=C(C)C(=O)c4c(O)c(c(C)c(OC(C)=O)c43)NC(=O)C(C)=C/C=C\C(C)C(O)C(C)C1O)OCO2 (stereo not given) — what was its GI50?
40.5 µM (inactive)

Could you tell me which GI50 is on file for CC1CN(CCO)CCN1c1ccccc1 (stereo not given) ?
> 100 µM (inactive)

Requested read-out: GI50. Entry: Cc1ccc(C(=O)N/N=C(\N=N\c2cccc([N+](=O)[O-])c2)c2ccc(N(C)C)cc2)cc1
41.8 µM (inactive)

// query GI50 value for entry COc1ccc2c(c1)c1c(n2CCN2CCCCC2)-c2ccccc2CC1
16.7 µM (inactive)

# input compound: C/C=C1\C(=O)O[C@H]2C/C(C)=C/CC/C(C)=C/CC[C@@]3(C)O[C@@H]3C[C@@H]12 ; wanted: its GI50
> 100 µM (inactive)

Look up GI50 for this compound: CCOC(=O)/C=C1/Nc2cc(F)c(F)cc2NC1=O
> 100 µM (inactive)

Query: GI50; subject: COC(=O)C1C(OS(=O)(=O)O)CCC2CN3CCc4c([nH]c5ccccc45)C3CC21 (stereo not given)
> 100 µM (inactive)

Please look up its GI50: COc1ccc(C(=C2C=CC=C2)c2ccc(OC)cc2)cc1
47.3 µM (inactive)

Fill in: GI50 of CC(=O)/N=C1\NC(=O)/C(=C/c2ccccc2Cl)N1C is ___
43.2 µM (inactive)

Need GI50 of N#Cc1c(O)n(-c2ccccc2)c(=O)c2c(N)n[nH]c12 , thanks.
> 100 µM (inactive)

Fill in: GI50 of O=c1c2nc(-c3ccccc3)oc2n(-c2ccccc2)c(=O)n1-c1ccccc1 is ___
19.1 µM (inactive)

Quick one: GI50 for CCO/C(Cc1ccc(Cl)cc1)=N/NC(N)=S ?
> 100 µM (inactive)

Reported GI50, compound CN(C)/N=C(/CC(O)(C(F)(F)F)C(F)(F)F)c1ccc([N+](=O)[O-])cc1 : ____
> 100 µM (inactive)

Requested read-out: GI50. Entry: CC[N+]1(C)CCC(O)(c2ccccc2)C(C(=O)c2ccccc2)C1 (stereo not given)
29.6 µM (inactive)

* * *

- Tested on: PC-3
- protocol.description: NCI tumour cell line growth inhibition, 48 h
Calls of active or inactive are those of the source. Rule as the data show it: active = GI50 up to about 1.1 µM and inactive = higher.
One label from this list, please: active, inactive

I'd appreciate the recorded outcome for Oc1nc(S)nc2nc3c4cccnc4c4ccccc4c3nc12 from this test.
inactive

How did this test come out for CC[N+]1(C)CCC(O)(c2ccccc2)C(C(=O)c2ccccc2)C1 (centres undefined) ?
inactive

Hey, what did the test say about COc1ccc(C(OCC2OC(n3cnc4c(=O)n(Cc5ccccc5[N+](=O)[O-])nnc43)C(O)C2O)(c2ccccc2)c2ccc(OC)cc2)cc1 (centres undefined) ?
inactive

What is the recorded call for this compound in the test? CCOc1ccc(-n2nnc3c(N)nc(N)nc32)cc1
inactive

Each compound tested received a call. Report the one for Nc1nc(Cl)c(N)c(NCC2(CO)CC(Cc3ccccc3)C2)n1 (centres undefined) .
inactive

Tell me the recorded outcome of this test for CCCCCCCCCCCCC(O)C(=O)O (centres undefined) .
inactive

Identify the outcome logged in this assay for the compound shown: C/C(=N\Nc1nc2ccccc2o1)c1ccncn1
active

Look up the recorded call for CC(=O)OC[C@@]1(C)[C@@H]2[C@@H]3[C@@]4(CO[C@]3(C)C(=O)[C@@]3(OC(C)=O)C[C@H](C)[C@H](OC(C)=O)[C@@H]3[C@H]4OC(C)=O)[C@H](OC(=O)c3ccccc3)C[C@@H]21 in this test.
inactive

# fetch the recorded call for C1COCCOP2(N3CC3)=NP(N3CC3)(=NP(N3CC3)(N3CC3)=N2)OCCOCCO1 (centres undefined) here
inactive

* * *

- Tested on: HOP-62
- protocol.description: NCI tumour cell line growth inhibition, 48 h
Where a name gives a salt, the structure may show the parent alone. The source made the active and inactive calls. Rule as the data show it: active = GI50 up to about 1.1 µM and inactive = higher.
Bench note: report the call from active, inactive

For CCOC(=O)[C@@]12NN=N[C@@H]1[C@H]1CO[C@H](c3ccccc3)N1C2=O , what call appears in the results of this test?
inactive

What call does the record list for COc1cc(C2c3cc4c(cc3[C@@H](Nc3ccc(F)cc3)C3CO[C@@H](O)[C@H]23)OCO4)cc(OC)c1O (stereo partly drawn) ?
inactive

Test call, this compound: CC(C)CC[C@H](O)[C@@H](C)[C@H]1[C@@H](OC2OC(C)C(O)C(O)C2O)C[C@H]2[C@@H]3CC=C4C[C@@H](O)CC[C@]4(C)[C@H]3[C@@H](O)C[C@]12C (stereo partly drawn)
active

What did the test return for CN(C)CCNCCCNc1c2ccccc2nc2cccc([N+](=O)[O-])c12 ?
active

Identify the outcome logged in this assay for the compound shown: COc1cc2c(cc1OC)C(C(CBr)CBr)N(C1CCCC1)CC2 (stereo not drawn)
inactive

Please indicate how the test categorized COc1ccc(C(=C2C=CC=C2)c2ccc(OC)cc2)cc1 .
inactive

Please indicate how the test categorized COc1cc(NCCC2CCCCN2)c2ncccc2c1 (stereo not drawn) .
inactive

Which outcome was entered for the compound CCOC(=O)C1CCCCN1C(=O)Cc1c[nH]c2ccccc12 (stereo not drawn) in this test?
inactive

Tell me the recorded outcome of this test for COC(=O)[C@@]1(C)C(=O)CC[C@@H]1C=O .
inactive

Would you mind telling me which call this test gave COc1ccc(C(=O)Cn2c(C(=O)/C=C/c3ccco3)nc3ccccc32)cc1 ?
inactive

Please share the test call associated with Cn1nc(C(=O)N2CC(CCl)c3c2cc([N+](=O)[O-])c2ccccc32)cc1NC(=O)Nc1cc(C(=O)N2CC(CCl)c3c2cc([N+](=O)[O-])c2ccccc32)nn1C (stereo not drawn) .
inactive

Would you mind telling me which call this test gave Cc1nccc2c1[nH]c1cc(O)ccc12 [HARMOL HYDROCHLORIDE] ?
inactive

What did this assay record as the result for CCCCCCCCc1cc2c(O)c(c1)Cc1cc(CCCCCCCC)cc(c1O)Cc1cc(CCCCCCCC)cc(c1O)Cc1cc(CCCCCCCC)cc(c1O)Cc1cc(CCCCCCCC)cc(c1O)Cc1cc(CCCCCCCC)cc(c1O)C2 ?
inactive

Test call, this compound: Cc1cc(O)c2c(c1)CC(O)C1=C2C(=O)c2c(O)ccc(OC3CC(O)C(OC4CC(OC5CCC(O)C(C)O5)C(O)C(C)O4)C(C)O3)c2C1=O (stereo not drawn)
inactive

Hello, I am checking results. What call was entered for CC(=S)NC=C(C(N)=O)C(N)=O ?
inactive

Call for entry CC(=O)/N=C1\NC(=O)/C(=C/c2ccccc2Cl)N1C :
inactive

Which outcome did this test record for the compound O=C1CC(C(O)(C(F)(F)F)C(F)(F)Cl)CCC1C(O)(C(F)(F)F)C(F)(F)Cl (stereo not drawn) ?
inactive

# outcome recorded in this test, key = CCS/C(=N\c1ccccc1)SC
inactive

* * *

- Tested on: ACHN
- protocol.description: NCI tumour cell line growth inhibition, 48 h
Activity calls are given as the source filed them. Rule as the data show it: active = GI50 up to about 1.1 µM and inactive = higher.
For each record, write down the corresponding GI50.

GI50 lookup needed for CC[N+]1(C)CCC(O)(c2ccccc2)C(C(=O)c2ccccc2)C1 (stereo not given) , thanks.
10.1 µM (inactive)

Could you tell me which GI50 is on file for Cc1ccc(S(=O)(=O)N2CCN(S(=O)(=O)c3ccc(C)cc3)CCN(S(=O)(=O)c3ccc(C)cc3)Cc3cc(Br)c(Br)cc3CN(S(=O)(=O)c3ccc(C)cc3)CC2)cc1 ?
> 100 µM (inactive)

Request the reported GI50 associated with Cc1ccc(/N=N/c2cc(=O)[nH]c(=O)[nH]2)cc1C
11 µM (inactive)

Could you tell me which GI50 is on file for O=C1C=C(Nc2ccc(Br)cc2)c2ccccc2/C1=N/O ?
7.31 µM (inactive)

Which measured GI50 value corresponds to CCN(CC)CC(O)C1CCC(c2ccccc2)CC1 (stereo not given) ?
18 µM (inactive)

Data origin: ChEMBL document CHEMBL1201862
